Tested on: DU-145
Experiment: Growth inhibition of human DU145 cells at 10^-5 M incubated for 48 hrs by sulforhodamine B assay
Type: functional
Details: DU-145, 48 h, read-out: GI
Please go through the items and note down their inhibition of growth at 10 µM.

## Task Check the records and state inhibition of growth at 10 µM for O=C1Nc2c(sc3ccc(Cl)cc23)C(c2ccccc2O)N1 (centres undefined)
## Result -8.18%

## Task Check the records and state inhibition of growth at 10 µM for N#Cc1cnn(C2=Nc3c(sc4ccc(Cl)cc34)C(c3cccc([N+](=O)[O-])c3)N2)c1N (centres undefined)
## Result -10.5%

## Task Check the records and state inhibition of growth at 10 µM for O=[N+]([O-])c1cccc(C2c3sc4ccc(Cl)cc4c3N=C3NN=CN32)c1 (centres undefined)
## Result 28.2%

Proceeding to the next compound to report its inhibition of growth at 10 µM.
## Task Check the records and state inhibition of growth at 10 µM for N=C1Nc2c(sc3ccc(Cl)cc23)C(c2cccc([N+](=O)[O-])c2)N1 (centres undefined)
## Result 20.5%
